MEASUREMENT_NOTES: Metabolic stability in rat liver microsome at 10 uM after 30 mins
CONDITION_DETAILS: liver microsomes
TEST_READOUT: remaining at 0.5 h, 10 µM
Put your answer as a value accompanied by its unit after it.

Exercise: Fill in the blank: the reported remaining at 0.5 h, 10 µM of Nc1cccc(CN2CCC(Nc3cccc4cnccc34)C2)c1 (stereo unspecified) is ____.
Solution: 67%

###

SYSTEM: Rho-associated protein kinase (Homo sapiens, UniProt O75116+Q13464)
Could you mark each record 1 if its IC50 falls strictly under 200 nM, and -1 if it equals or exceeds it?

Examples from the recorded data:
COMPOUND	GROUP_LABEL
CCCN1CCC(Nc2cccc3cnccc23)CC1	-1
Fc1ccc(CN2CCC(Nc3cccc4cnccc34)C2)cc1 (stereo not given)	1
Clc1cccc(CN2CCCC(Nc3cccc4cnccc34)C2)c1 (stereo not given)	-1

Exercise: Take the compound Nc1ccc(CN2CCC(Nc3cccc4cnccc34)C2)cc1 (stereo not given) and say whether its IC50 is less than 200 nM.
Solution: -1

Exercise: Take the compound `CC(C)CN1CCC(Nc2cccc3cnccc23)CC1` and say whether its IC50 is less than 200 nM.
Solution: -1

Exercise: Take the compound Nc1cccc(CN2CCC(Nc3cccc4cnccc34)C2)c1 (stereo not given) and say whether its IC50 is less than 200 nM.
Solution: -1
